Sourced from the SangsterLogP compilation

# assayExplanation: method code SF-AS, from DOI: 10.1016/s0021-9673(01)95502-5
# conditionSet: pH 3.5
endpointLabel: logD

Observe how each entry below is paired with its result.
INSERT INTO results (compound, endpointlabel, recordednumber) VALUES
  ('CC(C)(C)c1ccc(CC(=O)O)cc1', 'logD', 3.13),
  ('CC(C)c1ccc(C(=O)CCCC(=O)O)cc1', 'logD', 2.89),
  ('CC(C)c1ccc(C(=O)CCC(=O)O)cc1', 'logD', 2.7),
  ('CC(C)Cc1ccc(C(=O)CCCC(=O)O)cc1', 'logD', 3.39),
  ('O=C(O)CCC(=O)c1ccc(C2CCCCC2)c(Cl)c1', 'logD', 4.36);

a: O=C(O)CCCC(=O)c1ccc(C2CCCCC2)cc1
b: CC(C)Oc1ccc(C(=O)CC(C)C(=O)O)cc1 (centres undefined)
Which numeric logD is bigger, that of a or that of b ? Your answer should be the label of the entry you select.
a
(a: 3.95, b: 2.5)
